- Test system: Saccharomyces cerevisiae
- Experiment: protein stability index of tFT-peptide fusion (C-terminal peptide) (PSI (0-1 scale)); higher = more stable (slower turnover)
- Run Conditions: genetic background: das1 deletion; temperature: 30 C
Property Measured: protein stability index
Answers are plain numbers.

# annotated cases, reported protein stability index shown
[[record]]
entry_sequence = "THQKKIAKKKHQ [YPR015C C-terminal 12 aa]"
property_measured = "protein stability index"
number = 0.741

[[record]]
entry_sequence = "DDNDTSAYYEDN [GSY1 C-terminal 12 aa]"
property_measured = "protein stability index"
number = 0.689

[[record]]
entry_sequence = "LIFQRKYTAKEF [DTR1 C-terminal 12 aa]"
property_measured = "protein stability index"
number = 0.686


Give protein stability index for each listed item.
1. RPFYKRMFTKEK [HXT5 C-terminal 12 aa]
2. VPVILREYKGSA [GCD2 C-terminal 12 aa]
3. RLYVSRLFISKL [ATP8 C-terminal 12 aa]
4. RSDTKEPLALLS [VPS20 C-terminal 12 aa]

[0.731, 0.725, 0.801, 0.678]

Provide protein stability index for all items below, preserving their order.
1. AYFPQKYKHKYI [PRM6 C-terminal 12 aa]
2. LELQSRIESYLF [CNN1 C-terminal 12 aa]
3. AEIIDSLLEQIN [NSI1 C-terminal 12 aa]
4. LLLQFPPYLPHD [LAG2 C-terminal 12 aa]

0.689
0.703
0.744
0.75

What the record says about APVAAGESESSL [SRO9 C-terminal 12 aa] : protein stability index is 0.699

====

- Test system: Saccharomyces cerevisiae
- Experiment: protein stability index of tFT-peptide fusion (C-terminal peptide) (PSI (0-1 scale)); higher = more stable (slower turnover)
- Run Conditions: genetic background: cdc53-1; temperature: 37 C
Mark n for protein stability index values under 0.6, and y for everything at or above.

[[record]]
entry_sequence = "VLFFLVTSSVYF"
group_label = "n"

[[record]]
entry_sequence = "MLVLFCLCYILG"
group_label = "n"

[[record]]
entry_sequence = "ILFIVSSCGCVG"
group_label = "n"

[[record]]
entry_sequence = "RSRCVRAAVKVG"
group_label = "y"


Could you please find out whether `YFVLVRLICFLL` has protein stability index that meets 0.6 or exceeds it?
n

Threshold query (protein stability index >= 0.6) on `PAPQAVRIFSLY`
y

hey, is protein stability index for this one >= 0.6? `WVWCVCVVVWCG`
n

Decide: protein stability index of `FFFLILFPLSYS` >= 0.6?
n

Determine whether measured protein stability index meets or exceeds 0.6 for `CLLVCCCFYRNV`
n

Decide: is the reported value of protein stability index for `TCVTLRYRLTFE` equal to or greater than 0.6?
y

Given the entry `RVCWLRAFGFLV` , answer whether its protein stability index meets or surpasses 0.6.
y

For this sequence, is measured protein stability index 0.6 or higher? `RIKVTRRIIIYA`
n

Could you verify whether the entry `LLAVIVWIVPPA` shows protein stability index of no less than 0.6?
n

Given `WFVFVFCSPRSS` , state whether its protein stability index is at least 0.6.
y

Determine whether measured protein stability index meets or exceeds 0.6 for `CYFLFFLSYSLE`
n

// inclusive: protein stability index at least 0.6? input: `SCCIYVALCRWL`
n

Say whether `LVCLVASCVRWL` shows protein stability index of 0.6 or more.
n

Check this sequence for protein stability index at or above 0.6: `VFILGFLCLLFF`
n

====

Provide the reported protein stability index of each item.
- System: Saccharomyces cerevisiae
- Experiment: protein stability index of tFT-peptide fusion (C-terminal peptide) (PSI (0-1 scale)); higher = more stable (slower turnover)
- Run Conditions: genetic background: wild type; temperature: 30 C
Answers are plain numbers.

# count of solved cases: 5
[[record]]
entry_sequence = "IKEITKENNRNE"
tgt = "Saccharomyces cerevisiae"
property_measured = "protein stability index"
number = 0.708

[[record]]
entry_sequence = "GGGRRVCGVLAV"
tgt = "Saccharomyces cerevisiae"
property_measured = "protein stability index"
number = 0.619

[[record]]
entry_sequence = "SASRPRRWGLAR"
tgt = "Saccharomyces cerevisiae"
property_measured = "protein stability index"
number = 0.609

[[record]]
entry_sequence = "ARAEDLLVFLPL"
tgt = "Saccharomyces cerevisiae"
property_measured = "protein stability index"
number = 0.691

[[record]]
entry_sequence = "PSAFSPPARISL"
tgt = "Saccharomyces cerevisiae"
property_measured = "protein stability index"
number = 0.761


Provide protein stability index values for the following items, in order.
1. GVPGQFVSENII
2. LVQGPLSQDQPI
3. IKKRHQNGGKKE
4. AVRLALAPQVGA
5. SCGMDLALGYAV

1. 0.679
2. 0.656
3. 0.65
4. 0.617
5. 0.689

====

Answer each item with its documented protein stability index.
- System: Saccharomyces cerevisiae
- Experiment: protein stability index of tFT-peptide fusion (C-terminal peptide) (PSI (0-1 scale)); higher = more stable (slower turnover)
- Run Conditions: genetic background: wild type; temperature: 37 C
Answers are plain numbers.

[[record]]
entry_sequence = "SHPFIRSLVFLA"
tgt = "Saccharomyces cerevisiae"
property_measured = "protein stability index"
number = 0.0908

[[record]]
entry_sequence = "CPPPCPLYMLLC"
tgt = "Saccharomyces cerevisiae"
property_measured = "protein stability index"
number = 0.171

[[record]]
entry_sequence = "WEPILLELELCV"
tgt = "Saccharomyces cerevisiae"
property_measured = "protein stability index"
number = 0.538

[[record]]
entry_sequence = "FLPLFFLPCLSV"
tgt = "Saccharomyces cerevisiae"
property_measured = "protein stability index"
number = 0.413

[[record]]
entry_sequence = "SPPPLFLIVLHL"
tgt = "Saccharomyces cerevisiae"
property_measured = "protein stability index"
number = 0.52

[[record]]
entry_sequence = "CVARWPRPAGSS"
tgt = "Saccharomyces cerevisiae"
property_measured = "protein stability index"
number = 0.715


Please report protein stability index for every entry that follows.
1. LPPHSASLSSSF
2. FASFLFFCYIIF
3. SLIFRVGKFKSL
4. GTSDLIALLMLT
5. FLLLDFMLVSLV

1: 0.704; 2: 0.213; 3: 0.101; 4: 0.601; 5: 0.521

I would be grateful if you could provide protein stability index for each of the following entries.
1. HLYCYNILLVSG
2. FPFHSRPCLPVL
3. FVLSLGQLVFIF
4. WVWFGCVLGYRV
5. SAWGQAFWCQMG
6. ILISVNRVVLYC
7. RSPVVVFAVLLF

1: 0.375; 2: 0.572; 3: 0.548; 4: 0.531; 5: 0.555; 6: 0.19; 7: 0.505

Quick batch: protein stability index for everything below.
1. ALWRAWLRLRIW
2. GLLFWSGVVSWV

0.0985
0.504

Batch request: protein stability index per item, same order as input.
1. WLALSFFSFFFC
2. IEVGVAILLLGE
3. LLMLWWARVFSG
4. FSYFFIFFYMVC
5. LFRNIFLFVFLI

1: 0.66; 2: 0.679; 3: 0.35; 4: 0.228; 5: 0.307

For each of the sequences below, state protein stability index.
1. VDFCLLFLLLLV
2. GWIFFYFTWFVG
3. LFLVVVVRAGGF
4. SCCIYVALCRWL

1. 0.462
2. 0.275
3. 0.382
4. 0.48

Could you report protein stability index for every entry in the following list?
1. FLFFLFVVFVFV
2. CFFPLFLCTAFC
3. IGLSIWSVVSAL
4. FSCRRISFFLLV
5. VGGREVSRAGGG
6. DISWVFVLLIFF
7. EWVGIFRGVSVF
8. WGVVMVCVVFGL

1: 0.369; 2: 0.492; 3: 0.506; 4: 0.26; 5: 0.534; 6: 0.445; 7: 0.374; 8: 0.252

Could you report protein stability index for every entry in the following list?
1. GLVVMFVIAGGG
2. WHFMVFFCFCVD
3. SLPIFSGVASVR

[0.464, 0.355, 0.728]

Okay, here is my list. What is protein stability index for each of these?
1. CYFLFFLSYSLE
2. FFFLILFPLSYS
3. GWFCLFFVVSTG
4. IPFRRCFWFFWV
5. IKTKGRYKKQRT
6. ESCWVSRVGVCR
7. FHLVIYWCVRGP
8. PPPPTPRPLLPP

0.439
0.513
0.371
0.204
0.572
0.687
0.474
0.697

====

- System: Saccharomyces cerevisiae
- Experiment: protein stability index of tFT-peptide fusion (C-terminal peptide) (PSI (0-1 scale)); higher = more stable (slower turnover)
- Run Conditions: genetic background: doa10 deletion; temperature: 30 C
The class of a record is decided solely by its measured protein stability index; consult lower range (below 0.2), middle range (0.2 to below 0.3), upper range (0.3 or more)

Consider the following illustrative entries.
[[record]]
entry_sequence = "FFFFFIHFLCYF"
group_label = "middle range"

[[record]]
entry_sequence = "FVSFTVSFSVVV"
group_label = "upper range"

[[record]]
entry_sequence = "CFSVFSVLCFFV"
group_label = "upper range"

[[record]]
entry_sequence = "RTSRPVRLFRIH"
group_label = "middle range"

[[record]]
entry_sequence = "WVWCVCVVVWCG"
group_label = "lower range"


Just checking, what class would you give `TIRKCIIKWIKI` here?
lower range

Which class holds `RFCLLFVVAGGV` ?
upper range

For `LAKPTVRKIICV` , which protein stability index bin applies?
middle range

Which of the defined bands does the recorded protein stability index of `ASAYCCMITRLN` sit within?
lower range

Form: Item = `PPPPTPRPLLPP` ; Class = ?
upper range
